# assay.system: recombinant human PKG1-beta (Homo sapiens, UniProt Q13976)
# Construct: PKG1-beta (full-length, with N-terminal His-tag); His-tag (N); purchased Millipore GmbH, Schwalbach, Germany
# Sequence (Q13976 1-686 isoform Q13976-2): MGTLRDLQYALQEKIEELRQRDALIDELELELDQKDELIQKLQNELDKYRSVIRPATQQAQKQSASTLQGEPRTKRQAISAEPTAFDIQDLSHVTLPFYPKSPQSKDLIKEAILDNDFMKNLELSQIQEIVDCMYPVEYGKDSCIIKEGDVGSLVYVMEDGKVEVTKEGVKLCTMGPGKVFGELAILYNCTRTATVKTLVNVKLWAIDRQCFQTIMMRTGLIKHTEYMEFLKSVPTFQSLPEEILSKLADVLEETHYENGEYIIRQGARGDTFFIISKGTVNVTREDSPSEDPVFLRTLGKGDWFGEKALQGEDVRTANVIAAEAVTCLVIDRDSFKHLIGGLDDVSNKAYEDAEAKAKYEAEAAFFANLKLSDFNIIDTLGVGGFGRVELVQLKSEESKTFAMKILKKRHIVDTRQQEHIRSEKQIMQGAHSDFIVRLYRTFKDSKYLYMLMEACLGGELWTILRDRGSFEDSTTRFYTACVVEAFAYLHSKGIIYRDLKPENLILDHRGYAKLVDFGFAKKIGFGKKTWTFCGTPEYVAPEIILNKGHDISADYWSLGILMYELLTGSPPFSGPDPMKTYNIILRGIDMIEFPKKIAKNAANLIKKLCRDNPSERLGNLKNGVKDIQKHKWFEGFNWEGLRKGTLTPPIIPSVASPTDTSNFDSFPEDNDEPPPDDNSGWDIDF
# protocol.text: Determination of Protein Kinase G inhibition (selectivity)
# Type: biochemical
# experimental.context: from IC50 values
Exercise: state measured Selectivity against PKG for each of the compounds provided.

Dear colleague, I am looking for the recorded Selectivity against PKG of the following compound: NC(C1CC1)[C@]1(C2CC2)CC[C@H](Oc2cc3cc[nH]c(=O)c3cc2Cl)CC1 (stereo partly shown) >1000 fold

Dear colleague, I am looking for the recorded Selectivity against PKG of the following compound: CCCC1(C(N)CC)CCC(Oc2cc3cc[nH]c(=O)c3cc2Cl)CC1 (single isomer, unassigned) >1000 fold

Dear colleague, I am looking for the recorded Selectivity against PKG of the following compound: CCC1(C(C)N)CCC(Oc2cc3cc[nH]c(=O)c3cc2Cl)CC1 (single isomer, unassigned) [Example 3] >1000 fold

Dear colleague, I am looking for the recorded Selectivity against PKG of the following compound: CCC(N)[C@]1(C2CCS(=O)(=O)CC2)CC[C@H](Oc2cc3cc[nH]c(=O)c3cc2Cl)CC1 (stereo partly shown) >300 fold

Dear colleague, I am looking for the recorded Selectivity against PKG of the following compound: CCC(N)[C@]1(OC)CC[C@H](Oc2cc3cc[nH]c(=O)c3cc2Cl)CC1 (stereo partly shown) >300 fold

Dear colleague, I am looking for the recorded Selectivity against PKG of the following compound: CCC(N)C1(CC)CCC(Oc2cc3cc[nH]c(=O)c3cc2Cl)CC1 (single isomer, unassigned) [Example 107] >1000 fold

Dear colleague, I am looking for the recorded Selectivity against PKG of the following compound: CCC(N)C1(Cc2ccccc2)CCC(Oc2cc3cc[nH]c(=O)c3cc2Cl)CC1 (single isomer, unassigned) [Example 30] >10 fold

Entry source: patent US8399482B2
